Test system: IGROV1 ovarian
Test: NCI-60 one-dose screen, 48 h
Details: 10 µM unless noted
This is part of a sample that, as a whole, favours compounds with a hit. Of some 83,000 tested, about 20% had one in any assay. Activity calls are given as the source filed them. The calls were made as follows: active = growth percent below 10; inactive = the rest.
Response enum: active, inactive

Could you please tell me the result logged for O=C(CN1CCOCC1)NNc1ncnc2ccccc12 in this assay?
inactive

# repeat for Clc1ccc(Cc2nnc3sc(-c4cccnc4)nn23)cc1
inactive

Quick one: N#Cc1c(-c2ccc(F)cc2)nc2c(C#N)c(Nc3ccccc3)nn2c1N
inactive

COc1cccc(OC)c1-c1nnn(C)c1C(=S)N1CCN(c2ccc([N+](=O)[O-])cc2Cl)CC1 ?
inactive

Do the same for COc1ccc(CNS(=O)(=O)/N=C2\NC(=O)NC2=C(Cl)Cl)cc1 please
inactive

Also COc1cc(/C=C/C(=O)c2ccc(C)cc2)ccc1Oc1nc(NCCO)nc(N2CCOCC2)n1 , if possible.
inactive

Record: C#Cc1nc(C2=C(C)C(=N\O)/C(=N/O)C2)cs1
active

Would you mind doing O=C1Nc2cc(Cl)ccc2/C1=C\c1ccc(OCc2ccc([N+](=O)[O-])cc2)cc1 as well?
inactive

Also check COc1ccc(-c2nc3ccc(-c4nnc(SCC(=O)Nc5ccc(C(=O)/C=C/c6ccc(Cl)cc6)cc5)o4)cc3[nH]2)cc1OC
inactive

Can you handle CN1C(=O)N(c2ccccc2)C2N=C(N/N=C/c3ccccc3)SC21 (stereo not given) next?
inactive

Provenance of the data: PubChem BioAssay (NCI)
